Values were extracted from patent US20250101111A1.

target: T1, soluble human FcRn (human, UniProt P55899 24-297; P61769 21-119)
T1 construct: Made in HEK293F cells from two vectors; also called sFcRn; not shown: C-terminal BirA deca-His-tag
T1 sequence (P55899 24-297, chain 1 of 2): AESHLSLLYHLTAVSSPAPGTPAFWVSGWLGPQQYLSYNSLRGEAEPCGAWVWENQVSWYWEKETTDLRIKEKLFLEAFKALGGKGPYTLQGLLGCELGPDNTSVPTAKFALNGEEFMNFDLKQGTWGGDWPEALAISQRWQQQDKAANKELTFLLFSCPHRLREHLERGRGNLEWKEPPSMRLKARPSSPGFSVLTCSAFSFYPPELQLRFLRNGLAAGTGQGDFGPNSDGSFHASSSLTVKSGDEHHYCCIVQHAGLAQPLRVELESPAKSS
T1 sequence (P61769 21-119, chain 2 of 2): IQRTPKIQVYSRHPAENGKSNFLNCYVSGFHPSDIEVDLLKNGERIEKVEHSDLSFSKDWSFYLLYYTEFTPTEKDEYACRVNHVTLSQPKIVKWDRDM
measurement.protocol: SPR (IBIS MX96), Fc fragment immobilised, soluble FcRn titrated, pH 6.0, equilibrium 1:1 fit
Entries and their Kd
Express it in nM; write the number only.

1. Fc-ΔG236 (other) DKTHTCPPCPAPELLGPSVFLFPPKPKDTLMISRTPEVTCVVVDVSHEDPEVKFNWYVDGVEVHNAKTKPREEQYNSTYRVVSVLTVLHQDWLNGKEYKCKVSNKALPAPIEKTISKAKGQPREPQVYTLPPSRDELTKNQVSLTCLVKGFYPSDIAVEWESNGQPENNYKTTPPVLDSDGSFFLYSKLTVDKSRWQQGNVFSCSVMHEALHNHYTQKSLSLSPGK :: 130

Which Kd value belongs to Fc-ΔG236-MST-HN (other) DKTHTCPPCPAPELLGPSVFLFPPKPKDTLYITREPEVTCVVVDVSHEDPEVKFNWYVDGVEVHNAKTKPREEQYNSTYRVVSVLTVLHQDWLNGKEYKCKVSNKALPAPIEKTISKAKGQPREPQVYTLPPSRDELTKNQVSLTCLVKGFYPSDIAVEWESNGQPENNYKTTPPVLDSDGSFFLYSKLTVDKSRWQQGNVFSCSVMHEALKFHYTQKSLSLSPGK ?
15.4

Also Fc-G236A-MST-HN (other, human, UniProt P01857-1 104-330, looked up, domain: Fc fragment; EU numbering) DKTHTCPPCPAPELLAGPSVFLFPPKPKDTLYITREPEVTCVVVDVSHEDPEVKFNWYVDGVEVHNAKTKPREEQYNSTYRVVSVLTVLHQDWLNGKEYKCKVSNKALPAPIEKTISKAKGQPREPQVYTLPPSRDELTKNQVSLTCLVKGFYPSDIAVEWESNGQPENNYKTTPPVLDSDGSFFLYSKLTVDKSRWQQGNVFSCSVMHEALKFHYTQKSLSLSPGK ?
23.4

Now this one: Fc-MST-HN (other, human, UniProt P01857-1 104-330, looked up, domain: Fc fragment; MST-HN = M252Y S254T T256E H433K N434F (EU numbering); also called IgG1-Fc MST-HN) DKTHTCPPCPAPELLGGPSVFLFPPKPKDTLYITREPEVTCVVVDVSHEDPEVKFNWYVDGVEVHNAKTKPREEQYNSTYRVVSVLTVLHQDWLNGKEYKCKVSNKALPAPIEKTISKAKGQPREPQVYTLPPSRDELTKNQVSLTCLVKGFYPSDIAVEWESNGQPENNYKTTPPVLDSDGSFFLYSKLTVDKSRWQQGNVFSCSVMHEALKFHYTQKSLSLSPGK
18.9
